- assay method text: NCI Yeast Anticancer Drug Screen. Data for the bub3 strain (AID 167)
- assay context: S. cerevisiae bub3 mutant strain, at 50.0 µM, stronger effect = higher value
- Procedure: Growth inhibition of yeast strains with defined genetic alterations is measured as a screen for potential anti-cancer activity. Selected strains with alterations in DNA damage repair or cell cycle control were exposed to compounds and growth inhibition was measured relative to vehicle treated controls. The strain used in this assay is bub3
This is part of a sample that, as a whole, favours compounds with a hit. Of some 79,000 tested, about 15% had one in any assay.

compound: Cc1ccc(OC(=O)Nc2ccc(C(=O)O)c(O)c2)cc1
growth inhibition (%): -4.7

compound: CCOP(=O)(OCC)OC1CC(n2cc(C)c(=O)n(C)c2=O)OC1CO[Si](C)(C)C(C)(C)C (stereo unspecified)
growth inhibition (%): 20.9

compound: CCc1nnc2sc3c(Cl)c4nn5c(CC)nnc5sc4c(Cl)c3nn12
growth inhibition (%): -0.3

compound: C/C(=N\NC(=S)Nc1ccc([N+](=O)[O-])cc1S(=O)(=O)O)c1ccccn1
growth inhibition (%): -0.4

compound: BrCCC1CCCCCC1
growth inhibition (%): -4.25

compound: CN(CC#N)CC#N
growth inhibition (%): 20.1

---

- assay method text: NCI Yeast Anticancer Drug Screen. Data for the mec2-1 strain (AID 157)
- assay context: S. cerevisiae mec2-1 strain, at 50.0 µM, stronger effect = higher value
This is part of a sample that, as a whole, favours compounds with a hit. Of some 79,000 tested, about 15% had one in any assay. Activity calls are given as the source filed them. No stated cut-off is given here; in the data, active means growth inhibition above about 70%; inactive means the rest.
Form field: growth inhibition (one value per entry).

compound: CC(C)C1=CC2=CCC3C(C)(COC(=O)CSC(C)(C)C)CCCC3(C)C2CC1 (stereo unspecified)
growth inhibition: -2.25% (inactive)

compound: O=S(=O)(O)c1ccc(S)cc1
growth inhibition: 1.55% (inactive)

compound: COc1cccc(C(=O)C(CCC#N)c2ccccc2)c1 (stereo unspecified)
growth inhibition: 18.5% (inactive)

compound: CCN(CC)c1nc(C(N)=O)c([N+](=O)[O-])c(N(CC)CC)n1
growth inhibition: -3.4% (inactive)

compound: Cc1nc(C(=O)O)ccc1O
growth inhibition: 16% (inactive)

compound: CC(=O)Oc1cc(OC(C)=O)c2c(c1)OC(c1ccc(OC(C)=O)c(OC(C)=O)c1)CC2=O (stereo unspecified)
growth inhibition: 3.8% (inactive)

---

- assay method text: NCI Yeast Anticancer Drug Screen. Data for the mlh1 rad18 strain (AID 175)
- assay context: S. cerevisiae mlh1 rad18 strain growth inhibition; at 50.0 µM; stronger effect = higher value
About 79,000 compounds went through this panel and 15% of them were active in at least one assay; those are over-represented in the sample as a whole.
metric: growth inhibition (%)

molecule: COC(=O)c1cc(C)c(C)c2c1NC(=O)CNC2=O
reported measurement: 7.95

molecule: Cc1ccn2c(=O)c(CCBr)c(C)nc2c1
reported measurement: 2.25

molecule: Cc1ccc(S(=O)(=O)N(C)C)cc1NC1=NCCO1
reported measurement: -2.6

molecule: NC(=O)O/N=C/c1ccc(Cl)cc1
reported measurement: 9.8

molecule: Cc1ccc(S(=O)(=O)N/N=C2/CCC(C(C)(C)C)CC2Br)cc1 (configuration not stated)
reported measurement: 2.1

molecule: O=c1ncc2ccccc2[nH]1
reported measurement: -23.9

molecule: Cn1cc(C(C)(c2ccccc2)c2cn(C)c3ccccc23)c2ccccc21
reported measurement: -11

---

- assay method text: NCI Yeast Anticancer Drug Screen. Data for the sgs1 mgt1 strain (AID 161);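 further: 0% = growth of cultures given vehicle only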
- assay context: S. cerevisiae sgs1 mgt1 strain, at 50.0 µM, stronger effect = higher value
The panel holds about 79,000 compounds, 15% with a hit somewhere; the sample as a whole holds those more often. Activity calls are given as the source filed them. Rule as the data show it: active = growth inhibition above about 70%; inactive = the rest.
We begin with a simple list: items and their reported growth inhibition.

molecule: CCOC(=O)[C@]1(Br)CC[C@]1(Br)C(=O)OCC
growth inhibition: -4.95% (inactive)

molecule: Cn1c(Nc2ccccc2)c([N+](=O)[O-])c(=O)n(C)c1=O
growth inhibition: -5% (inactive)

molecule: C=CCN1C(=O)NC(=O)C1c1ccsc1 (configuration not stated)
growth inhibition: -22.2% (inactive)

molecule: CCCCCN(CCOC(=O)c1ccc([N+](=O)[O-])cc1)CCOC(=O)c1ccc([N+](=O)[O-])cc1
growth inhibition: 7.25% (inactive)

molecule: S=C(NCc1ccc(Cl)cc1Cl)Nc1ccccc1
growth inhibition: 75.8% (active)

molecule: OCc1c(CO)c(-c2ccc(Cl)cc2)n2c1CCC2
growth inhibition: 8.4% (inactive)

molecule: O=[N+]([O-])c1ccccc1S(=O)(=O)c1cc(Cl)cc2c1NCCC2
growth inhibition: 26.8% (inactive)

molecule: Cn1c(=O)c2nsnc2n(C)c1=O
growth inhibition: -14.2% (inactive)

molecule: CC1(C)SCCNC1=O
growth inhibition: 8.8% (inactive)

molecule: C1=CC(=NN=P(c2ccccc2)(c2ccccc2)c2ccccc2)C=C1
growth inhibition: 20.3% (inactive)

molecule: COc1ccc(CSCc2cc(OC)c(OC)c(OC)c2)cc1
growth inhibition: -24.1% (inactive)

molecule: Cc1nc(C(=O)O)ccc1O
growth inhibition: -1.05% (inactive)

---

- assay method text: NCI Yeast Anticancer Drug Screen. Data for the rad50 strain (AID 155);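 further: 0% = growth of vehicle-only cultures of the same strain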
- assay context: S. cerevisiae rad50 strain growth inhibition; at 50.0 µM; stronger effect = higher value
Compounds without any hit were thinned out: in the full panel of roughly 79,000, 15% have a hit.
# growth inhibition values compiled below

molecule: CC(C)C1OCCOCCO1
growth inhibition / %: 9.45
//
molecule: C=CC1=C(C)C2=NC1=CC1=NC(=CC3=C(C)C4=C(O)[C@H](C(=O)OC)C(=C5NC(=C2)[C@@H](C)[C@@H]5CCC(=O)O)C4=N3)C(CC)=C1C
growth inhibition / %: 1.65
//
molecule: Cc1cccc(CN)n1
growth inhibition / %: -2.55
//
molecule: COc1ccc(NC(=O)Oc2ccc(OC)cc2)cc1
growth inhibition / %: 5.75
//
molecule: O=C(/C=C/c1ccc(O)cc1)OC[C@@H](O)COC1OC(CO)C(O)C(O)C1O (stereo not given in full)
growth inhibition / %: -5.8
//
molecule: CC(C)c1ccc2c(c1)CC[C@H]1[C@](C)(COCCC#N)CCC[C@]21C
growth inhibition / %: -10.9
//
molecule: CC(C)CCC(=O)O
growth inhibition / %: -8.45
//
molecule: O=C1OC(c2ccccc2)=N/C1=C\c1ccco1
growth inhibition / %: -2.95
//
molecule: C#CC1(O)CCCCCCCCC2(CCCCCCCC1)OCCO2
growth inhibition / %: -10.7
//
molecule: O=C(CCc1ccco1)CCc1ccco1
growth inhibition / %: 7.6
//
molecule: Cc1cc([N+](=O)[O-])c(C)c(Br)c1C
growth inhibition / %: -8.45
//
molecule: CCOC(=O)CCC(NC(=O)c1ccc(NCc2nc3c([nH]2)c(=O)n(C)c(=O)n3C)cc1)C(=O)OCC (stereo not given)
growth inhibition / %: 1.95
//
molecule: OC/C(I)=C(I)\C(I)=C(\I)CO
growth inhibition / %: 99.2
//
molecule: CCCCOC(=O)CCCCCCCCC(=O)OCCCC
growth inhibition / %: 23.6
//
molecule: CC(C)Cc1cccc(C(C)C)c1NC(=O)CCC(=O)N/N=C1\C(=N/NC(=O)CCC(=O)Nc2c(C(C)C)cccc2C(C)C)C(c2ccc3c(c2)OCO3)Oc2ccccc21 (stereo not given)
growth inhibition / %: 5.2
//
molecule: Fc1ccc(-c2nnc(-c3ccc4ccccc4c3)o2)cc1
growth inhibition / %: 18.1
//
molecule: COc1cc(C=Nc2ccc(C)c(Cl)c2)ccc1OC(=O)c1ccccc1
growth inhibition / %: -22.2
//
molecule: NC(=S)C(=S)NCCO
growth inhibition / %: 19.2
//
molecule: O=C(Oc1cccc2ccccc12)c1cccnc1
growth inhibition / %: -1.45
//
molecule: CCOC(=O)c1cn(CC)c2cc(-n3cccc3)c(F)cc2c1=O
growth inhibition / %: 46.6
//
molecule: CC(=O)Nc1c(Nc2ccc3c(=O)[nH]ccc3c2C)cc[nH]c1=O
growth inhibition / %: 22.1
//
molecule: Nc1c(Cl)ncnc1NCCN1CCOCC1
growth inhibition / %: -3.85
//
molecule: Nc1ccccc1CCO
growth inhibition / %: 14.5
//
molecule: Cn1c2ccccc2n2c(=O)c(-c3ccc(Cl)cc3)nnc12
growth inhibition / %: -4.95
//
molecule: CCCC(C)C(=O)OC1CCCC1 (stereo not given)
growth inhibition / %: 11

---

- assay method text: NCI Yeast Anticancer Drug Screen. Data for the mlh1 rad18 strain (AID 175)
- assay context: S. cerevisiae mlh1 rad18 strain growth inhibition; at 50.0 µM; stronger effect = higher value
The panel holds about 79,000 compounds, 15% with a hit somewhere; the sample as a whole holds those more often.
Use 20% as the dividing line for growth inhibition, with the line itself on the true (1) side and lower values as false (0).

compound: O=c1[nH]cnc2c1CN(c1ccc(Cl)cc1)C2
label: false (0)

compound: CC(=O)OCC(OC(C)=O)C(OC(C)=O)c1cnn(-c2ccccc2)n1 (stereo unspecified)
label: true (1)

compound: O=C(O)CCc1nc2c(n1Cc1ccccc1)C(=O)c1ccccc1C2=O
label: false (0)

compound: Cc1cc(Cl)ccc1NC(=O)/C(Cc1nc2ccc(C(=O)c3ccccc3)cc2[nH]c1=O)=N/NC(=O)c1ccncc1
label: false (0)

compound: C#CC(CC(C)CC(C)(C)C)N(C)C (stereo unspecified)
label: true (1)

compound: CNc1nc(Cl)nc2c1nc(SC)n2-c1ccccc1
label: false (0)
